target: Histone-lysine N-methyltransferase EHMT2 (Homo sapiens) (UniProt Q96KQ7); test: qHTS Assay for Inhibitors of Histone Lysine Methyltransferase G9a; details: G9a H3K9 monomethylation, AlphaScreen, 2 h; series mostly up to 59 µM; also: nearly all actives have a fitted effect of over 75% in size
Sequence (Q96KQ7 913-1193 limits assumed): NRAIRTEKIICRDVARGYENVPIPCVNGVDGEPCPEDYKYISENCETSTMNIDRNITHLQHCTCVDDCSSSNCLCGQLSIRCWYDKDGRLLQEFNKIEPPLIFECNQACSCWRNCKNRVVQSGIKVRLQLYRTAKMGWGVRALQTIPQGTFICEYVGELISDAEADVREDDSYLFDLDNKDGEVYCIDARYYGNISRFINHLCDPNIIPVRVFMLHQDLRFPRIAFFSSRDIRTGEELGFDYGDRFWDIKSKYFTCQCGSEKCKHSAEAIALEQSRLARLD
Out of some 350,000 compounds screened, about 31,000 (8.9%) were called active. Roughly 15% stayed inconclusive and do not appear here. Calls follow the shape of the dose curve; as a rule, active = well fitted inhibition curve with a large enough effect; inconclusive = small, poorly fitted or top-dose-only effect; inactive = no such curve, though single readings can be large or run the other way. What follows is part of a selection rich in actives, with near analogues and random picks from the rest.
Labels: true (1) = active, false (0) = inactive

INSERT INTO assay_data (compound, label_value) VALUES
  ('COc1ccc(Cc2n[nH]c(=S)n2NC(=O)Nc2ccc(C)cc2)cc1', 'true (1)'),
  ('C=CCNc1nc(N)c([N+](=O)[O-])c(NC2CCCCC2)n1', 'false (0)'),
  ('O=C(c1ccc[nH]c1=S)N1CCN(S(=O)(=O)c2ccc(Br)cc2Cl)CC1', 'true (1)'),
  ('COc1ccccc1Nc1nc(N)nc(N)c1S(=O)(=O)c1ccccc1', 'false (0)'),
  ('CC1CCCCN1S(=O)(=O)CCNC(=O)c1ccccc1 (configuration not stated)', 'false (0)'),
  ('CCc1ccc(NC(=O)CN2CCSc3ccc(S(=O)(=O)N4CCCC4)cc32)cc1', 'false (0)'),
  ('COc1ccc2ncc3c(-c4ccc(C)c(C)c4)nn(CC(=O)NC4CCCC4)c3c2c1', 'false (0)'),
  ('Cc1ccc(S(=O)(=O)c2nc(-c3ccco3)oc2SCC(=O)Nc2ccc(F)cc2)cc1', 'false (0)'),
  ('CC(C)(C)NS(=O)(=O)c1ccc(NC(=O)C2CCCO2)cc1 (configuration not stated)', 'false (0)'),
  ('Cc1nc2cc(C(F)(F)F)ccc2n1CCNc1nc(-c2cc(Cl)c(N)c(Cl)c2)cs1', 'true (1)'),
  ('CC(C)NC(=S)N1CCN(S(C)(=O)=O)CC1', 'false (0)'),
  ('Cc1ccc(CSCC2Nc3ccc(C(=O)N4CCN(c5ccc(F)cc5)CC4)cc3NC2=O)cc1 (configuration not stated)', 'true (1)'),
  ('Cc1ccc(Cl)cc1NC(=O)CCS(=O)(=O)c1ccc(Br)s1', 'false (0)'),
  ('CCOc1ccccc1-n1c(SCC(=O)NCc2ccco2)nnc1-c1ccncc1', 'false (0)'),
  ('CCc1ccc(NC(=O)c2cc(S(=O)(=O)N3CCCC(C)C3)cn2C)cc1 (configuration not stated)', 'false (0)'),
  ('CCC(C)N(C(=O)CSc1nnnn1-c1ccccc1OC)C1CCS(=O)(=O)C1 (configuration not stated)', 'false (0)'),
  ('COc1ccc(N(Cc2ccc(N(C)C)cc2)C(=O)c2ccc(S(C)(=O)=O)cc2)cc1', 'true (1)'),
  ('Cn1c(=O)c2c(nc(SCC(=O)Nc3ccc(F)cc3)n2Cc2ccc(Cl)cc2)n(C)c1=O', 'false (0)'),
  ('CC(=O)c1cccc(NC(=S)N2CCN(S(C)(=O)=O)CC2)c1', 'true (1)'),
  ('COc1ccc(OC)c(NC(=O)C2CCCN(S(=O)(=O)c3ccc4c(c3)CCCC(=O)N4)C2)c1 (configuration not stated)', 'false (0)'),
  ('COc1ccc(/C(C)=N\NC(=O)c2ccc(-c3ccccc3)cc2)c(F)c1', 'false (0)'),
  ('N#Cc1cnn2cc(CCN3CCOCC3)c(-c3ccc(F)cc3)nc12', 'false (0)'),
  ('Brc1ccc(C2=CC(c3ccco3)n3ncnc3N2)cc1 (configuration not stated)', 'true (1)'),
  ('CCC(CC)COC(=O)C1=C(C)NC(=O)NC1c1ccc([N+](=O)[O-])cc1 (configuration not stated)', 'false (0)'),
  ('CCCCN(C)CCCNC(=O)CN1N=C(c2ccc(OC)cc2)CCC1=O', 'false (0)'),
  ('Cc1cc2nc(SCCN3CCOCC3)[nH]c2cc1C', 'false (0)'),
  ('O=C1CC(c2ccc(F)cc2F)c2cc3c(cc2N1)OCO3 (configuration not stated)', 'false (0)'),
  ('O=C(c1cnc(Cl)c(Cl)c1)N1CCN(S(=O)(=O)c2ccc(F)cc2)CC1', 'false (0)'),
  ('O=C1Nc2cc(C(=O)N3CCN(c4ccc(F)cc4)CC3)ccc2NC1CSCc1cccc(F)c1 (configuration not stated)', 'true (1)'),
  ('COc1ccc2c(CC(=O)Nc3nnc(C4CC4)s3)coc2c1', 'false (0)'),
  ('COc1ccc(C(=O)c2oc3ccccc3c2NC(=O)COc2cccc(C)c2)cc1', 'false (0)'),
  ('N#CC(C(=O)c1ccc(S(=O)(=O)N2CCCCCC2)cc1)c1nc2ccccc2[nH]1 (configuration not stated)', 'false (0)'),
  ('O=S(=O)(c1ccc(Br)cc1)N1CCC(c2nc3ccccc3[nH]2)CC1', 'true (1)'),
  ('COc1cc(C(=O)NCCS(=O)(=O)N2CCN(c3ccccc3)CC2)cc(OC)c1OC', 'false (0)'),
  ('CCCOc1ccc(-c2c(C(=O)N/N=C/c3ccco3)nnn2-c2nonc2N)cc1', 'false (0)'),
  ('CC1CCCN(c2cc3c(cc2F)c(=O)c(S(=O)(=O)c2cccc(Cl)c2)cn3Cc2ccccc2)C1 (configuration not stated)', 'false (0)'),
  ('CC1=C(C(=O)OCc2ccccc2)C(c2ccco2)n2ncnc2N1 (configuration not stated)', 'false (0)'),
  ('C=CCn1c(SCc2cccc(F)c2)nc2cc(C(=O)N3CCC(C(N)=O)CC3)ccc2c1=O', 'false (0)'),
  ('COc1ccc(S(=O)(=O)NCc2ccc(C(=O)N(C)Cc3ccco3)cc2)cc1', 'false (0)'),
  ('Cc1ccc(-c2csc3nnc(SCC(=O)NCc4ccco4)n23)cc1', 'true (1)'),
  ('Nc1c(Cl)cc(-c2csc(N3CCCC3c3nc4cc(Cl)c(Cl)cc4n3CCOCCO)n2)cc1Cl (configuration not stated)', 'false (0)'),
  ('O=C(c1ccc(Cl)c(S(=O)(=O)N2CCCCC2)c1)N1CCCCCC1', 'false (0)');
